Recorded pIC50, one value per entry.
system: 941728-121-R-J1-PDC complex spheroid viability; assay: Anticancer human tumor 941728-121-R-J1-PDC patient-derived lung adenocarcinoma cell line growth inhibition [RAS]; conditions: curve of first compound; second compound 0.003 µM;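 also: spheroids exposed to compounds for 7 days before readout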
pIC50: −log10 of the molar value.

Solved cases below.
Cc1nc(N2CCC3(CC2)COC(C)C3N)c(CO)nc1Sc1ccnc(N)c1Cl (stereo not drawn) + CCn1c(-c2cccnc2C(C)OC)c2c3cc(ccc31)N1CCOC(CC(NC(=O)C(C(C)C)N(C)C(=O)C3(F)CCN(C(=O)C#CC(C)(C)N(C)C)CC3)C(=O)N3CCCC(N3)C(=O)OCC(C)(C)C2)C1    > 7.50
C=CC(=O)N1CCN(c2nc(OCC3CCCN3C)nc3c(F)c(-c4nc(N)cc(C)c4C(F)(F)F)c(Cl)cc23)C(C)C1 (stereo not drawn) + CCn1c(-c2cccnc2C(C)OC)c2c3cc(ccc31)N1CCOC(CC(NC(=O)C(C(C)C)N(C)C(=O)C3(F)CCN(C(=O)C#CC(C)(C)N(C)C)CC3)C(=O)N3CCCC(N3)C(=O)OCC(C)(C)C2)C1    > 8.50
Nc1ccn(C2OC(CO)C(O)C2(F)F)c(=O)n1 (stereo not drawn) + CCn1c(-c2cccnc2C(C)OC)c2c3cc(ccc31)N1CCOC(CC(NC(=O)C(C(C)C)N(C)C(=O)C3(F)CCN(C(=O)C#CC(C)(C)N(C)C)CC3)C(=O)N3CCCC(N3)C(=O)OCC(C)(C)C2)C1    > 8.50
CC(C)NCC(C(=O)N1CCN(c2ncnc3c2C(C)CC3O)CC1)c1ccc(Cl)cc1 (stereo not drawn) + CCn1c(-c2cccnc2C(C)OC)c2c3cc(ccc31)N1CCOC(CC(NC(=O)C(C(C)C)N(C)C(=O)C3(F)CCN(C(=O)C#CC(C)(C)N(C)C)CC3)C(=O)N3CCCC(N3)C(=O)OCC(C)(C)C2)C1    > 7.50
CCC(CC)c1cc(NC2CCC(N)C2)n2nccc2n1 (stereo not drawn) + CCn1c(-c2cccnc2C(C)OC)c2c3cc(ccc31)N1CCOC(CC(NC(=O)C(C(C)C)N(C)C(=O)C3(F)CCN(C(=O)C#CC(C)(C)N(C)C)CC3)C(=O)N3CCCC(N3)C(=O)OCC(C)(C)C2)C1    > 7.50

Incoming: Note pIC50 for the compound shown: NC1c2ccccc2OC12CCN(c1cnc3c(N4CCCc5ncccc54)n[nH]c3n1)CC2 (stereo not drawn) + CCn1c(-c2cc(N3CCN(C)CC3)cnc2C(C)OC)c2c3cc(ccc31)-c1csc(n1)CC(NC(=O)C1CC1C)C(=O)N1CCCC(N1)C(=O)OCC(C)(C)C2
Outgoing: > 7.50

Incoming: Note pIC50 for the compound shown: CC(C)NCC(C(=O)N1CCN(c2ncnc3c2C(C)CC3O)CC1)c1ccc(Cl)cc1 (stereo not drawn) + CCn1c(-c2cc(N3CCN(C)CC3)cnc2C(C)OC)c2c3cc(ccc31)-c1csc(n1)CC(NC(=O)C1CC1C)C(=O)N1CCCC(N1)C(=O)OCC(C)(C)C2
Outgoing: > 7.50

Incoming: Note pIC50 for the compound shown: CC1(C)CCC(Nc2ncc(C(F)(F)F)c(-c3c[nH]c4c(P(C)(C)=O)c(C#N)ccc34)n2)CN1 (stereo not drawn) + CCn1c(-c2cccnc2C(C)OC)c2c3cc(ccc31)N1CCOC(CC(NC(=O)C(C(C)C)N(C)C(=O)C3(F)CCN(C(=O)C#CC(C)(C)N(C)C)CC3)C(=O)N3CCCC(N3)C(=O)OCC(C)(C)C2)C1
Outgoing: > 9.02
